# Tgt: T1, recombinant extracellular domain (ECD) of human TF, amino acid 1-219 of the mature chain, C-terminal His6-tag (human, UniProt P13726 33-251)
# T1 construct: expressed in a mammalian system; used for ELISA and Biacore; biotinylated by NHS-ester for the Fab ELISA; also called His6-TF-ECD1-219; HumanTF1-219
# Measurement notes: direct ELISA, 50 ng/ml
Observation type: binding result

M70 (antibody, V domains shown, complete MAb; FR4 is its own entry; also called H23/L7) VH: QVQLVQSGAEVKKPGSSVKVSCKASGYTFITYWIEWVRQAPGQGLEWMGDILPGSGSTNYAQKFQGRVTITADESTSTAYMELSSLRSEDTAVYYCARSGYYGNSGFAYWGQGTLVTVSS VL: DIVMTQTPLSSPVTLGQPASISCKSSQSLLSSGNQKNYLTWLQQRPGQPPRLLIYWASTRESGVPDRFSGSGAGTDFTLKISRVEAEDVGVYYCQNDYTYPLTFGQGTKLEIK
binds
M49 (antibody, V domains shown, complete MAb; FR4 is its own entry; also called H20/L7) VH: QVQLVQSGAEVKKPGASVKVSCKASGYTFITYWIEWVRQAPGQGLEWMGDILPGSGSTNYNENFKGRVTMTTDTSTSTAYMELRSLRSDDTAVYYCARSGYYGNSGFAYWGQGTLVTVSS VL: DIVMTQTPLSSPVTLGQPASISCKSSQSLLSSGNQKNYLTWLQQRPGQPPRLLIYWASTRESGVPDRFSGSGAGTDFTLKISRVEAEDVGVYYCQNDYTYPLTFGQGTKLEIK
binds
M75 (antibody, V domains shown, complete MAb; FR4 is its own entry; also called H24/L5) VH: EVQLVQSGAEVKKPGATVKISCKVSGYTFITYWIEWVQQAPGKGLEWMGDILPGSGSTNYAEKFQGRVTITADTSTDTAYMELSSLRSEDTAVYYCATSGYYGNSGFAYWGQGTLVTVSS VL: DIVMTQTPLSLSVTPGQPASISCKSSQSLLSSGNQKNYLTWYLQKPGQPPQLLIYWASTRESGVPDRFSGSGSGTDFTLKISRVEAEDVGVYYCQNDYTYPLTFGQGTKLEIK
binds

Origin of measurements: patent US20120237528A1
